- Test system: 3T3-L1
- PROCEDURE DETAILS: Inhibition of mouse 3T3-L1 cell differentiation at 2 uM
Active and inactive are the calls of the source. The calls are words filed in the database; no cut-off is given here.
PROPERTY NAME: Activity

# example entries with known answers
>>> result("COC(=O)CC/C(C)=C/Cc1c(OC)c(C)c2c(c1OC)C(=O)OC2")
"inactive"
>>> result("COC(=O)CC/C(C)=C/Cc1c(O)c(C)c2c(c1O)C(=O)OC2")
"inactive"
>>> result("COc1c(C)c2c(c(O)c1C/C=C(\\C)CCC(=O)O)C(=O)OC2")
"Active"
>>> result("COc1c(C)c2c(c(OC(C)=O)c1C/C=C(\\C)CCC(=O)O)C(=O)OC2")
"Active"
>>> result("COC(=O)CC/C(C)=C/Cc1c(O)c2c(c(C)c1OC(=O)c1cccnc1)COC2=O")
"inactive"

Q: Read off the recorded Activity for `COc1c(C)c2c(c(OC)c1C/C=C(\C)CCC(=O)O)C(=O)OC2`
Result: inactive

Q: Read the entry `COC(=O)CC/C(C)=C/Cc1c(O)c2c(c(C)c1OC)COC2=O` and write its reported Activity.
Result: Active

Q: Provide measured Activity value, entry: `CCOC(=O)COc1c(C)c2c(c(OCOCCOC)c1C/C=C(\C)CCC(=O)OC)C(=O)OC2`
Result: inactive

Q: // Input: `CCOC(=O)COc1c(C)c2c(c(O)c1C/C=C(\C)CCC(=O)OC)C(=O)OC2` . Output its Activity only.
Result: inactive

Q: Return value of Activity for input `COC(=O)CC/C(C)=C/Cc1c(OC)c(C)c2c(c1OS(=O)(=O)c1ccc(C)cc1)C(=O)OC2` , no commentary.
Result: inactive

The origin of these recorded values is ChEMBL document CHEMBL1149659.
